Target: purified recombinant rat FAAH (Rattus norvegicus, UniProt P97612)
Construct: The truncated rat FAAH (rFAAH) was expressed in E. coli and purified as described; made in house; host or cells: Escherichia coli
Sequence (P97612 30-579 limits assumed): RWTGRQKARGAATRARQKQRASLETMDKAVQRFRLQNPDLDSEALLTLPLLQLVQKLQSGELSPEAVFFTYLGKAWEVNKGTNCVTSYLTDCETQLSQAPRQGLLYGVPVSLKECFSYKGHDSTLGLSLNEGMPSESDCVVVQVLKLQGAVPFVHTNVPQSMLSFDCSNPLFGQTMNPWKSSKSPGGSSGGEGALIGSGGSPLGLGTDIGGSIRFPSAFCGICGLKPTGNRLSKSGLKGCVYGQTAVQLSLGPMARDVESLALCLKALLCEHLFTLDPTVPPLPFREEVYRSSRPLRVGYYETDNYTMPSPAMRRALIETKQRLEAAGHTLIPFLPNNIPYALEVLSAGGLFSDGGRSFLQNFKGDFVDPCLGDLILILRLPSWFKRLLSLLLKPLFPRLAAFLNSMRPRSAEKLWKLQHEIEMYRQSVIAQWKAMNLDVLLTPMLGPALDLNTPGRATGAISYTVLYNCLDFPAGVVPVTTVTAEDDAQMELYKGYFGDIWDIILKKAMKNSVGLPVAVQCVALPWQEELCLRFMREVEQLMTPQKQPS
Test: FAAH inhibition enzyme assay (14C-oleamide hydrolysis, Dixon plot), rat enzyme
Assay type: biochemical
Details: Table 2; rat FAAH, pH 9 assay conditions; read-out: Ki
Excerpt: The purified recombinant rFAAH was used in the inhibition assays unless otherwise indicated. The ^14C-labeled oleamide (substrate) and oleic acid (product) were extracted with EtOAc and analyzed by TLC.
pKi: −log10 of the molar value.
Reported pKi values follow for various compounds

| Compound | Comparison Sign | pKi |
| --- | --- | --- |
| O=C(CCCCCCc1ccccc1)c1nnc(-c2cccs2)[nH]1 [14d] | < | 6.00 |
| O=C(CCCCCCc1ccccc1)c1nnc(-c2ccco2)[nH]1 [14c] | < | 6.00 |
| O=C(CCCCCCc1ccccc1)c1nnc(-c2ccccn2)[nH]1 [14b] | < | 4.00 |
| O=C(CCCCCCc1ccccc1)c1nc(-c2cccs2)no1 | = | 8.80 |
| O=C(CCCCCCc1ccccc1)c1nc(-c2ccccn2)no1 | = | 9.47 |
| O=C(CCCCCCc1ccccc1)c1nnc(-c2ccccc2)o1 | = | 8.66 |
| COC(=O)c1cccc(-c2nnc(C(=O)CCCCCCc3ccccc3)o2)n1 | = | 8.52 |
| O=C(CCCCCCc1ccccc1)c1nncs1 [12a] | = | 8.85 |
| O=C(CCCCCCc1ccccc1)c1nnn(-c2cccs2)n1 [15d] | = | 8.07 |

* * *

Documented TGH selectivity (value in parentheses) across a set of compounds
Molecular target: triacylglycerol hydrolase (TGH) (Mus musculus)
Construct: with FP-Rh in brain and heart membrane proteome; from tissue; host or cells: brain and heart membrane proteome
Sequence (Q8VCT4 19-565): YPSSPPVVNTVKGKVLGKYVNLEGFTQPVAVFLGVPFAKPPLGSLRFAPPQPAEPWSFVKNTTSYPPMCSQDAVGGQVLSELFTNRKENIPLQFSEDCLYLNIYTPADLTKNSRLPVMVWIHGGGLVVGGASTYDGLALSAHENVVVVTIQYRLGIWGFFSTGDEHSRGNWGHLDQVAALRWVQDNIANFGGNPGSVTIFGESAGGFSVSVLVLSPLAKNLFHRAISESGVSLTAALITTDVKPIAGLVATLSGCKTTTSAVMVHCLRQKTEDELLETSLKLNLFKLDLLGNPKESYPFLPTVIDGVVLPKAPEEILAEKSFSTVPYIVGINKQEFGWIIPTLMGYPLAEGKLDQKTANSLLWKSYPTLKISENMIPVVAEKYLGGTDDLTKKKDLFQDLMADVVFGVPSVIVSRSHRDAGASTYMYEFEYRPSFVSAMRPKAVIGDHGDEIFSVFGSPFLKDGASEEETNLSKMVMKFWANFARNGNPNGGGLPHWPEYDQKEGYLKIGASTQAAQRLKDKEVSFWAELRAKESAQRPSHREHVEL
Test: Activity based protein profiling (proteome-wide selectivity screening, FP-Rh), TGH
Type: biochemical
Conditions: Table 4; ratio TGH IC50 / FAAH IC50 (fold selectivity for FAAH)

| Compound | Experimental System | TGH selectivity (value in parentheses) |
| --- | --- | --- |
| COC(=O)c1cccc(-c2cnc(C(=O)CCCCCCc3ccccc3)s2)n1 [11f] | triacylglycerol hydrolase (TGH) (Mus musculus) | < 0.4 |
| COC(=O)c1cccc(-c2ccc(C(=O)CCCCCCc3ccccc3)nn2)n1 [13f] | triacylglycerol hydrolase (TGH) (Mus musculus) | > 10 |
| O=C(O)c1cccc(-c2cnc(C(=O)CCCCCCc3ccccc3)o2)n1 | triacylglycerol hydrolase (TGH) (Mus musculus) | > 1000 |

* * *

Biological target: KIAA1363 (Mus musculus, UniProt Q8BLF1)
Construct: with FP-Rh in brain and heart membrane proteome; from tissue; host or cells: brain and heart membrane proteome
Sequence (Q8BLF1 1-408): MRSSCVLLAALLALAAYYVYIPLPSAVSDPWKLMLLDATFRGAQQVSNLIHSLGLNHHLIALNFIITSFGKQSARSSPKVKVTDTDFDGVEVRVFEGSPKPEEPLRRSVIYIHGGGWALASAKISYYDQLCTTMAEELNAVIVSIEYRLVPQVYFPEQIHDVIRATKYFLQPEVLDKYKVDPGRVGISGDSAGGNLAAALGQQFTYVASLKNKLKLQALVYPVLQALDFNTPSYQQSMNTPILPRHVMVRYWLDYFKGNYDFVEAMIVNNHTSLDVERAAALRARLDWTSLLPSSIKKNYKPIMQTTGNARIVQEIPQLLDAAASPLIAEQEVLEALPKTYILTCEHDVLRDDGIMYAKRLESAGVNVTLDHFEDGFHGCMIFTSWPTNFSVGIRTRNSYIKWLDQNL
Experiment: Activity based protein profiling (proteome-wide selectivity screening, FP-Rh), KIAA1363
Format: biochemical
Conditions: Table 4; ratio KIAA1363 IC50 / FAAH IC50 (fold selectivity for FAAH)
Property Name: KIAA1363 selectivity (value in parentheses)

| Molecule | Comparison Sign | Numeric Result |
| --- | --- | --- |
| O=C(CCCCCCc1ccccc1)c1nnc(-c2ccccn2)o1 [8b] | = | 90000 |
| O=C(CCCCCCc1ccccc1)c1nc(-c2ccccn2)no1 [9b] | = | 10000 |
| N#Cc1cccc(-c2ccc(C(=O)CCCCCCc3ccccc3)nn2)n1 [13h] | > | 8 |
